Assay: chemical genetic growth profiling, strain panel (AID 1159580);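 also: tested at 20 µM; growth read once vehicle control cultures reached saturation at 30 °C; 1 = growth at the plate median or of vehicle wells; lower values mean less growth of the strain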
Details: S. cerevisiae deletion strains, growth OD, locus YPR025C, strain CCL1
Hit rate of the full screen: of about 5,500 compounds, about 2,000 (36%) were called active. About 18% were inconclusive and are not listed. Rule as the data show it: active = normalized growth mostly below about 0.91 (no sharp cut-off); inconclusive = no clear call, values can overlap the other calls; inactive = mostly above about 0.92. This is one part of the list.
Hi! Could you answer with just one of these? active, inactive

Data request: For `CNC(=O)Sc1c(-c2ccc(Cl)cc2)nn(C(=O)NC)c1SC` , what call appears in the results of this test?
Data returned: inactive

Data request: Called result for `Brc1ccc(-c2csc(-c3cccnc3)n2)cc1`
Data returned: active

Data request: Dear all, I need the recorded test outcome for `COc1ccc(-c2csc(-c3cccnc3)n2)cc1` , thank you.
Data returned: inactive

Data request: What did this assay record as the result for `Cc1ccc(S(=O)(=O)Nc2nc(-c3ccc(C)c(Cl)c3)c(C)s2)cc1` ?
Data returned: inactive

Data request: Called result for `O=C(Nc1cc(Cl)ccc1O)c1ccccc1CSc1ccc(Cl)cc1`
Data returned: inactive

Data request: Hi, do you know how `Cn1nccc1-c1cc(Cl)cc(Cl)c1O` came out in this test?
Data returned: inactive

Data request: Per the records of this test, what outcome belongs to CCOC(=O)c1sc(S(C)=NC(=O)Nc2ccc(Cl)cc2)c2c1CCC=C2 (stereo not given) ?
Data returned: inactive

Data request: Could you please tell me the result logged for `Clc1ccc(-c2cnc(Nc3cc(Cl)cc(Cl)c3)s2)cc1` in this assay?
Data returned: inactive

Data request: Look up the recorded call for `COc1ccc(-c2cn3cc(C)ccc3n2)cc1` in this test.
Data returned: inactive

Data request: Record lookup: outcome of this test for `Clc1cccc(Nc2ncc(-c3ccc4c(c3)OCCCO4)s2)c1` ?
Data returned: inactive

Data request: I'd appreciate the recorded outcome for `Clc1ccccc1-c1csc(-c2cccnc2)n1` from this test.
Data returned: inactive

Data request: Could you check what this test reported for `COc1ccc(Nc2nc(NC(=O)Nc3ccc(Cl)cc3)n[nH]2)cc1` ?
Data returned: inactive

Data request: What did this assay record as the result for `C/C(=N/NC(=S)NCC(C)(C)C)c1cc(F)cc(Cl)c1O` ?
Data returned: inactive

Data request: Assay outcome for `Clc1ccccc1-c1csc(-c2ccncc2)n1` : what was it?
Data returned: inactive

Data request: GET /call?item= `CN(C)c1ccc(/C=C/c2ccc3ccccc3[n+]2C)cc1` returns the recorded outcome of this test.
Data returned: inactive

---

Assay: chemical genetic growth profiling, strain panel (AID 1159580);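 also: tested at 20 µM; growth read once vehicle control cultures reached saturation at 30 °C; 1 = growth at the plate median or of vehicle wells; lower values mean less growth of the strain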
Conditions: S. cerevisiae deletion strains, growth OD, locus YNL322C, strain KRE1 (second series), stronger effect = lower value
In all, about 5,500 compounds went through this assay and about 2,000 (36%) were called active. About 18% were inconclusive and are not listed. This is one part of the list.
ENDPOINT: normalized growth
Respond using a number only.

Measured normalized growth of CC(=O)Oc1c2c(c(CC=C(C)C)c3c1C(=O)C1=C[C@@H]4CC5C(C)(C)OC(C/C=C(\C)C(=O)O)(C4=O)[C@@]15O3)OC(C)(CCC=C(C)C)C=C2 (some centres undefined) : 1.01

normalized growth for `COc1ccc2oc3ccccc3c(=O)c2c1` is 0.992

Entry CC(=O)O[C@@H]1CC2C(C)(C)[C@H](O)C=C[C@]2(C)C2CC[C@@]3(C)[C@H](c4ccoc4)OC(=O)C4OC43[C@@]21C (some centres undefined) ; normalized growth = 1.02

Given item `CN(C)C(=O)Oc1ccc[n+](C)c1` , the value recorded as its normalized growth is 1

Lab book: normalized growth of CC(=O)O[C@H]1CC[C@@]2(C)C(C[C@@H](OC(C)=O)[C@]3(C)C2CC[C@@]2(C)[C@H](c4ccoc4)OC(=O)[C@H]4O[C@]423)C1(C)C (some centres undefined) noted as 0.997

Per the records, this compound ( `Fc1ccc([C@@H]2CCNC[C@H]2COc2ccc3c(c2)OCO3)cc1` ) has normalized growth equal to 1.01

Short answer for `CCCn1c(=O)c2[nH]c(C3CCCC3)nc2n(CCC)c1=O` : normalized growth was 0.986

Field normalized growth (entry CC(=O)O[C@H]1C[C@@H](OC(C)=O)C(C)(C)C2C[C@@H](OC(C)=O)[C@]3(C)C(CC[C@@]4(C)[C@H](c5ccoc5)OC(=O)[C@H]5O[C@]543)[C@]21C (some centres undefined) ) reads 0.999

Looking up `COc1ccc(-c2oc3cc(OC)c(OC)c(OC)c3c(=O)c2OC)cc1OC` , I see its normalized growth listed as 0.989

---

Test: chemical genetic growth profiling, strain panel (AID 1159580);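 also: tested at 20 µM; growth read once vehicle control cultures reached saturation at 30 °C; 1 = growth at the plate median or of vehicle wells; lower values mean less growth of the strain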
Settings: S. cerevisiae deletion strains, growth OD, locus YDL134C, strain PPH21
Out of some 5,500 compounds screened, about 2,000 (36%) were called active. About 18% were inconclusive and are not listed. Rule as the data show it: active = normalized growth mostly below about 0.91 (no sharp cut-off); inconclusive = no clear call, values can overlap the other calls; inactive = mostly above about 0.92. The list shows a part of the results.
Choose the fitting class; nothing outside active, inactive is accepted.

Data request: Field: outcome | Entry: `Fc1ccc([C@@H]2CCNC[C@H]2COc2ccc3c(c2)OCO3)cc1`
Data returned: inactive

Data request: Called result for `NCCCCC(=O)O`
Data returned: inactive

Data request: Lab log entry: `N/C(=N/OC(=O)Nc1ccccc1)c1ccc(C2SCCS2)cc1` — outcome as called in the assay?
Data returned: inactive

Data request: For `NCCCCCC(=O)O` , which call appears in the assay record?
Data returned: inactive

Data request: Name the outcome recorded for C[C@]12C=CC(=O)C=C1CCC1C2[C@@H](O)C[C@@]2(C)C1CC[C@]2(O)C(=O)CO (some centres undefined) in the assay.
Data returned: inactive

Data request: So what was the verdict on `FC(F)(F)c1cccc(N2CCNCC2)c1` in this test?
Data returned: inactive

Data request: Tell me the assay call for CC(=O)O[C@H]1C[C@@H](OC(C)=O)C(C)(C)C2C[C@@H](OC(C)=O)[C@]3(C)C(CC[C@@]4(C)[C@H](c5ccoc5)OC(=O)[C@H]5O[C@]543)[C@]21C (some centres undefined) please.
Data returned: inactive

Data request: Any idea what this test logged for CC(=O)OC1CC(OC(C)=O)C2(C)C(CC(OC(C)=O)C3(C)C2CCC2(C)C(c4ccoc4)OC(=O)C4OC423)C1(C)C (centres undefined) ?
Data returned: inactive

Data request: Returns: the outcome recorded for O=c1cccc2n1CC1CC2CN2CCCC[C@@H]12 (some centres undefined) in this assay.
Data returned: inactive

Data request: Tell me the recorded outcome of this test for Clc1ccc(C(c2ccccc2Cl)C(Cl)Cl)cc1 (centres undefined) .
Data returned: inactive

Data request: Short answer needed: outcome of this test for `CN(C)C(=O)Oc1ccc[n+](C)c1` ?
Data returned: inactive

Data request: Lab log entry: `CCOC(=O)c1sc2sc(C(=O)c3ccc(Cl)cc3)c(C)c2c1C` — outcome as called in the assay?
Data returned: inactive

Data request: Test call for this molecule, please: O=C(O)C1CCCNC1 (centres undefined)
Data returned: inactive

Data request: Per the records of this test, what outcome belongs to CC(=O)OCC(=O)[C@@]1(O)CCC2C3CCC4=CC(=O)C=CC4(C)C3[C@@H](O)C[C@@]21C (some centres undefined) ?
Data returned: inactive

Data request: Dear all, I need the recorded test outcome for `c1ccc2c(CC3=NCCN3)cccc2c1` , thank you.
Data returned: inactive

Data request: How did this test come out for `CCOC(=O)C(=CNNS(=O)(=O)c1cc(C(F)(F)F)cc(C(F)(F)F)c1)C(=O)OCC` ?
Data returned: inactive

Data request: Dear colleague, could you share the recorded outcome for `O=C(O)CCCCCCCC(=O)O` when you have a moment?
Data returned: inactive

Data request: Outcome logged for `NC1(C(=O)O)CCCC1` in this assay:
Data returned: inactive

Data request: What did the test return for `COC(=O)c1cscc1Sc1ccc(Cl)cc1` ?
Data returned: active

Data request: Test call for this molecule, please: C[C@]12CCC3C(CC[C@H]4C[C@@H](O)CC[C@]34C)C1CC[C@@H]2O (some centres undefined)
Data returned: inactive

Data request: What was the test verdict on COC1C=CC23c4cc5c(cc4CN(CC2O)[C@@H]3C1)OCO5 (some centres undefined) ?
Data returned: inactive

Data request: Fill in: this test's call for `CN1CCC[C@@H]1CCO[C@](C)(c1ccccc1)c1ccc(Cl)cc1` is ___
Data returned: inactive

Data request: Short answer needed: outcome of this test for `NC1(C(=O)O)CC1` ?
Data returned: inactive

Data request: # fetch the recorded call for `O=S(=O)(NCC1CC1)c1ccc(F)c(Cl)c1` here
Data returned: inactive

---

Test: chemical genetic growth profiling, strain panel (AID 1159580);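 also: tested at 20 µM; growth read once vehicle control cultures reached saturation at 30 °C; 1 = growth at the plate median or of vehicle wells; lower values mean less growth of the strain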
Details: S. cerevisiae deletion strains, growth OD, locus YLR058C, strain SHM2, stronger effect = lower value
In all, about 5,500 compounds went through this assay and about 2,000 (36%) were called active. Another 18% or so got no clear call; they are omitted. Some of the results follow.
ENDPOINT: normalized growth

Lookup result for O=c1[nH]c(=O)n(C2C[C@H](O)[C@@H](CO)O2)cc1C(F)(F)F (some centres undefined) ; measured normalized growth: 0.968 (inactive)

Lab note: measured normalized growth of C[C@]12CCC3c4ccc(OC(=O)c5ccccc5)cc4CCC3C1CCC2=O (some centres undefined) was 1.01 (inactive)

Reported normalized growth for CC(=O)Oc1ccc2c(c1)CCC1C2CC[C@]2(C)C(=O)CCC12 (some centres undefined) was 0.987 (inactive)

// normalized growth lookup, compound = CCCCCCCCCCCCCC(=O)OC1C(C)C2(O)C(C=C(CO)CC3(O)C(=O)C(C)=CC32)C2C(C)(C)C12OC(C)=O (centres undefined) , result: 0.996 (inactive)

Measured normalized growth, `OC[C@H]1O[C@@H](n2cnc3c(NCc4ccco4)ncnc32)[C@H](O)[C@@H]1O` : 1.02 (inactive)

Sure, the documented normalized growth for C[C@]12CCC3c4ccc(O)cc4CCC3C1CCC2=O (some centres undefined) is 0.97 (inactive)

normalized growth recorded for this compound, C[C@]12CCC3c4ccc(OC(=O)CCC(=O)O)cc4CCC3C1CCC2=O (some centres undefined) , is 0.985 (inactive)

The compound listed as C[C@]12CCC3C(CC[C@H]4C[C@@H](O)CC[C@]34C)C1CC[C@@H]2O (some centres undefined) has a reported normalized growth of 1.02 (inactive)

Notebook: C=C[C@@]1(C)CC(=O)[C@@]2(O)[C@](C)(O1)[C@@H](OC(C)=O)[C@@H](O)C1C(C)(C)CC[C@H](O)[C@@]12C (some centres undefined) , normalized growth read as 0.982 (inactive)
